- Test system: Mycobacterium tuberculosis
- assay-name: Antimycobacterial activity against Mycobacterium tuberculosis H37Rv by microplate alamar blue assay
- Format: functional
property-label: MIC (µg/mL)
Value expressed in µg/mL; do not type the unit.

Kindly note the recorded MIC for CO[C@H]1/C=C/O[C@@]2(C)Oc3c(C)c(O)c4c(O)c(c(/C=N/N5CCN(C)CC5)c(O)c4c3C2=O)NC(=O)/C(C)=C\C=C\[C@H](C)[C@H](O)[C@@H](C)[C@@H](O)[C@@H](C)[C@H](OC(C)=O)[C@@H]1C , which is 0.06

Given item C=C(CC[C@@H](C)[C@H]1CC[C@H]2[C@@H]3C(C=O)=C4C[C@@H](O)CC[C@]4(C)[C@H]3CC[C@]12C)C(C)C , the value recorded as its MIC is 7.8

Record summary for CC[C@@H](CC[C@@H](C)[C@H]1CC[C@H]2[C@@H]3C(C=O)=C4C[C@@H](O)CC[C@]4(C)[C@H]3CC[C@]12C)C(C)C : reported MIC = 3.8

Per the records, this molecule ( CC(C)[C@@H](C)[C@]1(C)C[C@@H]1[C@@H](C)[C@H]1CC[C@H]2[C@@H]3C(C=O)=C4C[C@@H](O)CC[C@]4(C)[C@H]3CC[C@]12C ) has MIC equal to 12.7

Lookup result for C=C(CC[C@@H](C)[C@H]1CC[C@H]2[C@@H]3CC=C4C[C@@H](O)CC[C@]4(C)[C@H]3CC[C@]12C)C(C)C ; measured MIC: 120

Memo: CC(C)C(=O)CC[C@@H](C)[C@H]1CC[C@H]2[C@@H]3C(C=O)=C4C[C@@H](O)CC[C@]4(C)[C@H]3CC[C@]12C , reported MIC: 13.6

The values you see were collected from ChEMBL document CHEMBL1142462.
